# test method notes: photoluminescence quantum yield (fraction); solvent given as SMILES
# measurement context: in CC#N
# True = photoluminescence quantum yield below 0.3 (exclusive); False = photoluminescence quantum yield at/above 0.3

Take the compound `C(=C\c1ccc(N(c2ccccc2)c2ccccc2)cc1)/c1ccc(-c2cc(-c3ccccn3)nc(-c3ccccn3)c2)cc1` and say whether its photoluminescence quantum yield is less than 0.3. False

Take the compound `COc1ccc(-c2cc3c(s2)c(C(C)=O)cc(=O)n3C)cc1` and say whether its photoluminescence quantum yield is less than 0.3. False

Continue with the next compound.
Take the compound `Cc1cc2nc3c(=O)[nH]c(=O)nc-3n(C)c2cc1C` and say whether its photoluminescence quantum yield is less than 0.3. True

====

# test method notes: photoluminescence quantum yield (fraction); solvent given as SMILES
# measurement context: in C1CCOC1
reported metric: photoluminescence quantum yield
I'd appreciate a reply containing only the number, no unit.

These solved cases illustrate the format of a correct answer.
According to the records, this compound `CCCCCCCCc1ccc(-c2c3cc(-c4cc(CCCCCCCC)c(-c5ccc(-c6sc(/C=C7\SC(SCC)=NC7=O)cc6CCCCCCCC)s5)s4)sc3c(-c3ccc(CCCCCCCC)s3)c3cc(-c4cc(CCCCCCCC)c(-c5ccc(-c6sc(/C=C7\SC(SCC)=NC7=O)cc6CCCCCCCC)s5)s4)sc23)s1` displays photoluminescence quantum yield of 0.078

According to the records, this compound `CCCCCCCCN1c2ccccc2Sc2cc(/C=C/c3ccc(N(c4ccc(/C=C/c5ccc6c(c5)Sc5ccccc5N6CCCCCCCC)cc4)c4ccc(/C=C/c5ccc(/C=C/c6ccc(N(c7ccc(/C=C/c8ccc(N(c9ccccc9)c9ccccc9)cc8)cc7)c7ccc(/C=C/c8ccc(N(c9ccccc9)c9ccccc9)cc8)cc7)cc6)c6nsnc56)cc4)cc3)ccc21` displays photoluminescence quantum yield of 0.031

According to the records, this compound `COc1ccc2cc(C#Cc3ccc([N+](=O)[O-])cc3)ccc2c1` displays photoluminescence quantum yield of 0.025

According to the records, this compound `Cc1cc(C)c(C2=C3C=C(c4ccccc4)C(c4ccccc4)=[N+]3[B-](F)(F)n3c2cc(-c2ccccc2)c3-c2ccccc2)c(C)c1` displays photoluminescence quantum yield of 0.9

According to the records, this compound `CCCCCCc1cc2c(s1)-c1sc(CCCCCC)cc1P(c1ccccc1)(c1ccccc1)=[O+][B-]2(c1c(C)cc(C)cc1C)c1c(C)cc(C)cc1C` displays photoluminescence quantum yield of 0.06

Next:
According to the records, this compound `CCCCCCCCCCCCOc1ccc(C#Cc2ccc(C#Cc3ccc(OCCCCCCCCCCCC)c(OCCCCCCCCCCCC)c3)c3nc4c5ccccc5c5ccccc5c4nc23)cc1OCCCCCCCCCCCC` displays photoluminescence quantum yield of 0.23

====

# test method notes: photoluminescence quantum yield (fraction); solvent given as SMILES
# measurement context: in ClC(Cl)Cl
just bin them by photoluminescence quantum yield: low value: < 0.08; medium value: ≥ 0.08 and < 0.5; high value: ≥ 0.5

# classify by photoluminescence quantum yield band: `CCCCCCN1C(=O)c2cccc3cc(/N=C\c4nc5ccccc5s4)cc(c23)C1=O` low value

# classify by photoluminescence quantum yield band: `COc1cnc(-c2cc[n+](C3=C(F)C(F)(F)C(F)(F)[C-]3F)cc2)s1` high value

Next:
# classify by photoluminescence quantum yield band: `O=Cc1ccc(C#CC(C#Cc2ccc(C=O)o2)=Cc2ccc(C=C(C#Cc3ccc(C=O)o3)C#Cc3ccc(C=O)o3)cc2)o1` medium value

# classify by photoluminescence quantum yield band: `CC1=CC(c2ccc3cc(N(C)C)ccc3c2)=[O+][B-](F)(F)O1` high value

# classify by photoluminescence quantum yield band: `CN(C)c1ccc2nc(/C=C/c3cc4c5c(c3)CCCN5CCC4)c(=O)oc2c1` medium value

# classify by photoluminescence quantum yield band: `F[B-]1(F)OC(c2ccc(C(F)(F)F)cc2)=Cc2ccc3ccccc3[n+]21` medium value

# classify by photoluminescence quantum yield band: `CCOc1ccc2c(-c3nc(-c4ccccc4Cl)no3)cc(=O)oc2c1` medium value

# classify by photoluminescence quantum yield band: `CCCCCCCCC1(CCCCCCCC)c2cc(-c3ccc(C=C4C(=O)c5ccccc5C4=O)cc3)ccc2-c2ccc(-c3ccc(C=C4C(=O)c5ccccc5C4=O)cc3)cc21` low value

# classify by photoluminescence quantum yield band: `COc1ccc2cc(C#Cc3ccc([N+](=O)[O-])cc3)ccc2c1` low value
